Observed Kd values for human KMO (Homo sapiens) are listed in what follows.

INSERT INTO assay_data (compound, experimental_target, obs_value) VALUES
  ('COc1ccc(S(=O)(=O)Nc2nc(-c3cccc([N+](=O)[O-])c3)cs2)cc1OC [Ro 61-8048, reference compound]', 'human KMO (Homo sapiens)', '11 µM');

Would you kindly look at the next entry?
Fill in the blank: the reported Kd of COc1cc(-c2cc(=O)c3c(O)c(C/C=C(\C)CCC=C(C)C)c(O)cc3o2)ccc1O [CFA, cannflavin A] is ____. 41 µM

* * *

Molecular target: human KMO (Homo sapiens)
Sequence (O15229 whole entry): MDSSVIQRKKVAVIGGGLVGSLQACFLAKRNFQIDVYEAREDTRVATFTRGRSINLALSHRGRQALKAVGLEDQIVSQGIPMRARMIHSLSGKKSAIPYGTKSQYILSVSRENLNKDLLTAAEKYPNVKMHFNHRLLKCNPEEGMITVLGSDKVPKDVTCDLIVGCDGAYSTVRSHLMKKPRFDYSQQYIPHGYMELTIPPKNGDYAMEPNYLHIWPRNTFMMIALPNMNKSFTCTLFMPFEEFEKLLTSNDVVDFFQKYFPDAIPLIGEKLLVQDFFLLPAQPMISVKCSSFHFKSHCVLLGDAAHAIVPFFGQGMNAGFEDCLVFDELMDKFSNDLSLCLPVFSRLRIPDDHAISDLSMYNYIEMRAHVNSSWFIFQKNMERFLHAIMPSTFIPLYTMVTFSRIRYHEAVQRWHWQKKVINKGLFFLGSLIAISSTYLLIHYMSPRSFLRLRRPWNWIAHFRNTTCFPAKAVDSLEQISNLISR
Assay: KMO enzyme activity (inhibitor screening kit) assay
Type: biochemical
Design: purchased BPS Bioscience
Conditions: read-out: % inhibition of KMO enzyme activity
Method: The enzymatic assay was performed in duplicate. Ro 61-8048 was used as the positive control. The test compounds were dissolved in DMSO at 100 mM and diluted to 1 mM in assay buffer. […] The absorbance was recorded at 340 nm. The enzyme activity was expressed as % activity as follows: % Activity=[(Abssample−Absblank)/(Abscontrol−Absblank)]×100 % Inhibition was calculated by subtracting the % activity from 100%.
experimental.readout: inhibition at 100 µM (%)
API: value field is a number in %; no unit string.

Observe how each entry below is paired with its result.
INSERT INTO assay_data (molecule, obs_value) VALUES
  ('CCCCCc1cc(O)c(C/C=C(\C)CCC=C(C)C)c(O)c1', 1),
  ('CCCCCc1cc(O)c(C/C=C(\C)CCC=C(C)C)c(O)c1C(=O)O', 1),
  ('CCCCCc1cc(O)c2c(c1)OC(C)(C)c1ccc(C)cc1-2', 0),
  ('CCCCCc1cc(O)c2c(c1)OC(C)(CCC=C(C)C)C=C2 (centres unmarked)', 0),
  ('COc1cc(-c2cc(=O)c3c(O)c(C/C=C(\C)CCC=C(C)C)c(O)cc3o2)ccc1O', 99);

Which inhibition at 100 µM is reported for this molecule? C=C(C)[C@@H]1CCC(C)=C[C@H]1c1c(O)cc(CCC)cc1O 0

Can you handle CCCCCc1cc(O)c2c(c1)OC(C)(C)[C@@H]1CC=C(C)C[C@@H]21 [Δ^8 THC, delta-8-Tetrahydrocannabinol] next? 1

Proceed to C=C(C)[C@@H]1CCC(C)=C[C@H]1c1c(O)cc(CCCCC)cc1O [CBD, cannabidiol, reference compound] 6
